Readings of pKa for the listed compounds
assay: Dissociation constant, pKa of the compound; type: physicochemical
Reply with just the number.

CN1CCN(C(C#N)c2ccc(O)cc2)CC1 (racemic): 7.7
COc1ccc(C(C#N)N2CCN(C)CC2)cc1O (racemic): 7.7
COc1ccc(C(C#N)N2CCOCC2)cc1OC (racemic): 2.2

Qu. Field request: pKa | item: COc1ccc(C(C#N)N2CCCC2)cc1OC (racemic)
Ans. 4.3

Qu. Field request: pKa | item: COc1cc(C(C#N)N2CCN(C)CC2)cc(OC)c1OC (racemic)
Ans. 7.6

Qu. Field request: pKa | item: COc1ccc(C(C#N)N2CCCCC2)cc1OC (racemic)
Ans. 4

====

Readings of pKa for the listed molecules
assay: Dissociation constant, pKa of the compound; type: physicochemical

These recorded examples may help you get a feel for the data.
N#CC(c1ccc(O)cc1)N1CCCC1 (racemic): 4.5
COc1cc(C(C#N)N2CCCCC2)ccc1O (racemic): 4.1
COc1cc(C(C#N)N2CCCC2)ccc1O (racemic): 4.4
N#CC(c1ccc2c(c1)OCO2)N1CCCC1 (racemic): 4.3
N#CC(c1ccc2c(c1)OCO2)N1CCCCC1 (racemic): 4
COc1cc(C(C#N)N2CCN(C)CC2)ccc1O (racemic): 7.7
CN1CCN(C(C#N)c2ccc3c(c2)OCO3)CC1 (racemic): 7.6
COc1ccc(C(C#N)N2CCN(C)CC2)cc1OC (racemic): 7.6

Qu. Field request: pKa | item: COc1cc(C(C#N)N2CCCCC2)cc(OC)c1OC (racemic)
Ans. 3.9

Qu. Field request: pKa | item: COc1ccc(C(C#N)N2CCOCC2)cc1O (racemic)
Ans. 2.2

Qu. Field request: pKa | item: COc1cc(C(C#N)N2CCCC2)cc(OC)c1OC (racemic)
Ans. 4.2

====

experiment: Dissociation constant, pKa of the compound; format: physicochemical
Readings of pKa for the listed compounds
Reply with just the number.

These recorded examples may help you get a feel for the data.
N#CC(c1ccc(O)cc1)N1CCCCC1 (racemic): 4.2
N#CC(c1ccc2c(c1)OCO2)N1CCOCC1 (racemic): 2.2
COc1ccc(C(C#N)N2CCCCC2)cc1O (racemic): 4
COc1cc(C(C#N)N2CCOCC2)ccc1O (racemic): 2.3
COc1cc(C(C#N)N2CCOCC2)cc(OC)c1OC (racemic): 2.1
COc1ccc(C(C#N)N2CCCC2)cc1O (racemic): 4.3

Qu. Field request: pKa | item: N#CC(c1ccc(O)cc1)N1CCOCC1 (racemic)
Ans. 2.4
